Tested on: HeLa Kyoto
Assay: melting temperature (median over replicates), in situ; higher = more thermally stable
Settings: cell cycle stage: mitosis
melting temperature values for the substances below.
quantity measured: melting temperature (°C)

MDGEEKTYGGCEGPDAMYVKLISSDGHEFIVKREHALTSGTIKAMLSGPGQFAENETNEVNFREIPSHVLSKVCMYFTYKVRYTNSSTEIPEFPIAPEIALELLMAANFLDC [TCEB1]: 52.3
MSKSLKKLVEESREKNQPEVDMSDRGISNMLDVNGLFTLSHITQLVLSHNKLTMVPPNIAELKNLEVLNFFNNQIEELPTQISSLQKLKHLNLGMNRLNTLPRGFGSLPALEVLDLTYNNLSENSLPGNFFYLTTLRALYLSDNDFEILPPDIGKLTKLQILSLRDNDLISLPKEIGELTQLKELHIQGNRLTVLPPELGNLDLTGQKQVFKAENNPWVTPIADQFQLGVSHVFEYIRSETYKYLYGRHMQANPEPPKKNNDKSKKISRKPLAAKNR [RSU1]: 52.9
MSLEQRSLHCKPEEALEAQQEALGLVCVQAATSSSSPLVLGTLEEVPTAGSTDPPQSPQGASAFPTTINFTRQRQPSEGSSSREEEGPSTSCILESLFRAVITKKVADLVGFLLLKYRAREPVTKAEMLESVIKNYKHCFPEIFGKASESLQLVFGIDVKEADPTGHSYVLVTCLGLSYDGLLGDNQIMPKTGFLIIVLVMIAMEGGHAPEEEIWEELSVMEVYDGREHSAYGEPRKLLTQDLVQEKYLEYRQVPDSDPARYEFLWGPRALAETSYVKVLEYVIKVSARVRFFFPSLREAALREEEEGV [MAGEA1]: 49.5
MAKTYDYLFKLLLIGDSGVGKTCLLFRFSEDAFNTTFISTIGIDFKIRTIELDGKKIKLQIWDTAGQERFRTITTAYYRGAMGIMLVYDITNEKSFDNIKNWIRNIEEHASSDVERMILGNKCDMNDKRQVSKERGEKLAIDYGIKFLETSAKSSANVEEAFFTLARDIMTKLNRKMNDSNSAGAGGPVKITENRSKKTSFFRCSLL [RAB8B]: 54
MAATALLEAGLARVLFYPTLLYTLFRGKVPGRAHRDWYHRIDPTVLLGALPLRSLTRQLVQDENVRGVITMNEEYETRFLCNSSQEWKRLGVEQLRLSTVDMTGIPTLDNLQKGVQFALKYQSLGQCVYVHCKAGRSRSATMVAAYLIQVHKWSPEEAVRAIAKIRSYIHIRPGQLDVLKEFHKQITARATKDGTFVISKT [PTPMT1]: 51.2
MGAQLSTLGHMVLFPVWFLYSLLMKLFQRSTPAITLESPDIKYPLRLIDREIISHDTRRFRFALPSPQHILGLPVGQHIYLSARIDGNLVVRPYTPISSDDDKGFVDLVIKVYFKDTHPKFPAGGKMSQYLESMQIGDTIEFRGPSGLLVYQGKGKFAIRPDKKSNPIIRTVKSVGMIAGGTGITPMLQVIRAIMKDPDDHTVCHLLFANQTEKDILLRPELEELRNKHSARFKLWYTLDRAPEAWDYGQGFVNEEMIRDHLPPPEEEPLVLMCGPPPMIQYACLPNLDHVGHPTERCFVF [CYB5R3]: 55.8
HNRNPK: 49.9
MLQTLYDYFWWERLWLPVNLTWADLEDRDGRVYAKASDLYITLPLALLFLIVRYFFELYVATPLAALLNIKEKTRLRAPPNATLEHFYLTSGKQPKQVEVELLSRQSGLSGRQVERWFRRRRNQDRPSLLKKFREASWRFTFYLIAFIAGMAVIVDKPWFYDMKKVWEGYPIQSTIPSQYWYYMIELSFYWSLLFSIASDVKRKDFKEQIIHHVATIILISFSWFANYIRAGTLIMALHDSSDYLLESAKMFNYAGWKNTCNNIFIVFAIVFIITRLVILPFWILHCTLVYPLELYPAFFGYYFFNSMMGVLQLLHIFWAYLILRMAHKFITGKLVEDERSDREETESSEGEEAAAGGGAKSRPLANGHPILNNNHRKND [CERS2]: 52.9

----------
List of melting temperature values.
Tested on: HeLa Kyoto
Test: melting temperature (median over replicates), in situ; higher = more thermally stable
Conditions: cell cycle stage: mitosis
quantity measured: melting temperature (°C)

MELFLAGRRVLVTGAGKGIGRGTVQALHATGARVVAVSRTQADLDSLVRECPGIEPVCVDLGDWEATERALGSVGPVDLLVNNAAVALLQPFLEVTKEAFDRSFEVNLRAVIQVSQIVARGLIARGVPGAIVNVSSQCSQRAVTNHSVYCSTKGALDMLTKVMALELGPHKIRVNAVNPTVVMTSMGQATWSDPHKAKTMLNRIPLGKFAEVEHVVNAILFLLSDRSGMTTGSTLPVEGGFWAC [DCXR]: 55.7
MVDKKLVVVFGGTGAQGGSVARTLLEDGTFKVRVVTRNPRKKAAKELRLQGAEVVQGDQDDQVIMELALNGAYATFIVTNYWESCSQEQEVKQGKLLADLARRLGLHYVVYSGLENIKKLTAGRLAAAHFDGKGEVEEYFRDIGVPMTSVRLPCYFENLLSHFLPQKAPDGKSYLLSLPTGDVPMDGMSVSDLGPVVLSLLKMPEKYVGQNIGLSTCRHTAEEYAALLTKHTRKVVHDAKMTPEDYEKLGFPGARDLANMFRFYALRPDRDIELTLRLNPKALTLDQWLEQHKGDFNLL [NMRAL1]: 49.3
MASQNRDPAATSVAAARKGAEPSGGAARGPVGKRLQQELMTLMMSGDKGISAFPESDNLFKWVGTIHGAAGTVYEDLRYKLSLEFPSGYPYNAPTVKFLTPCYHPNVDTQGNICLDILKEKWSALYDVRTILLSIQSLLGEPNIDSPLNTHAAELWKNPTAFKKYLQETYSKQVTSQEP [UBE2C]: 49.9

----------
System: HeLa Kyoto
Assay: solubility in G1/S (NP-40 vs SDS abundance) (log2 ratio); higher = more soluble
Conditions: cell cycle stage: G1/S
quantity measured: solubility in G1/S (log2)

MHPAGLAAAAAGTPRLRKWPSKRRIPVSQPGMADPHQLFDDTSSAQSRGYGAQRAPGGLSYPAASPTPHAAFLADPVSNMAMAYGSSLAAQGKELVDKNIDRFIPITKLKYYFAVDTMYVGRKLGLLFFPYLHQDWEVQYQQDTPVAPRFDVNAPDLYIPAMAFITYVLVAGLALGTQDRFSPDLLGLQASSALAWLTLEVLAILLSLYLVTVNTDLTTIDLVAFLGYKYVGMIGGVLMGLLFGKIGYYLVLGWCCVAIFVFMIRTLRLKILADAAAEGVPVRGARNQLRMYLTMAVAAAQPMLMYWLTFHLVR [YIF1B]: 0.0319
MAAASGSVLQRCIVSPAGRHSASLIFLHGSGDSGQGLRMWIKQVLNQDLTFQHIKIIYPTAPPRSYTPMKGGISNVWFDRFKITNDCPEHLESIDVMCQVLTDLIDEEVKSGIKKNRILIGGFSMGGCMAIHLAYRNHQDVAGVFALSSFLNKASAVYQALQKSNGVLPELFQCHGTADELVLHSWAEETNSMLKSLGVTTKFHSFPNVYHELSKTELDILKLWILTKLPGEMEKQK [LYPLAL1]: 0.361
MKPLVVFVLGGPGAGKGTQCARIVEKYGYTHLSAGELLRDERKNPDSQYGELIEKYIKEGKIVPVEITISLLKREMDQTMAANAQKNKFLIDGFPRNQDNLQGWNKTMDGKADVSFVLFFDCNNEICIERCLERGKSSGRSDDNRESLEKRIQTYLQSTKPIIDLYEEMGKVKKIDASKSVDEVFDEVVQIFDKEG [CMPK1]: 0.272
MAAPPEPGEPEERKSLKLLGFLDVENTPCARHSILYGSLGSVVAGFGHFLFTSRIRRSCDVGVGGFILVTLGCWFHCRYNYAKQRIQERIAREEIKKKILYEGTHLDPERKHNGSSSN [COX20]: 0.0379
MASQNRDPAATSVAAARKGAEPSGGAARGPVGKRLQQELMTLMMSGDKGISAFPESDNLFKWVGTIHGAAGTVYEDLRYKLSLEFPSGYPYNAPTVKFLTPCYHPNVDTQGNICLDILKEKWSALYDVRTILLSIQSLLGEPNIDSPLNTHAAELWKNPTAFKKYLQETYSKQVTSQEP [UBE2C]: -0.443
MILTKAQYDEIAQCLVSVPPTRQSLRKLKQRFPSQSQATLLSIFSQEYQKHIKRTHAKHHTSEAIESYYQRYLNGVVKNGAAPVLLDLANEVDYAPSLMARLILERFLQEHEETPPSKSIINSMLRDPSQIPDGVLANQVYQCIVNDCCYGPLVDCIKHAIGHEHEVLLRDLLLEKNLSFLDEDQLRAKGYDKTPDFILQVPVAVEGHIIHWIESKASFGDECSHHAYLHDQFWSYWNRFGPGLVIYWYGFIQELDCNRERGILLKACFPTNIVTLCHSIA [C15ORF41]: 0.176
MGASARLLRAVIMGAPGSGKGTVSSRITTHFELKHLSSGDLLRDNMLRGTEIGVLAKAFIDQGKLIPDDVMTRLALHELKNLTQYSWLLDGFPRTLPQAEALDRAYQIDTVINLNVPFEVIKQRLTARWIHPASGRVYNIEFNPPKTVGIDDLTGEPLIQREDDKPETVIKRLKAYEDQTKPVLEYYQKKGVLETFSGTETNKIWPYVYAFLQTKVPQRSQKASVTP [AK3]: 0.43
